system: Collinsella aerofaciens; test: growth AUC relative to DMSO control (median of replicates) (fraction); higher = more growth (less inhibition), active = hit call of the paper; settings: 20 µM; 24 h
Param threshold (1) applies to growth AUC; output Condition met when value >= threshold, Condition not met when value < threshold.

{"compound": "COCCOc1ccccc1S(=O)(=O)NC(=O)Nc1nc(OC)nc(OC)n1", "group": "Condition not met"}
{"compound": "Br[C@@H]1CC[C@@H](Br)[C@@H](Br)CC[C@@H](Br)[C@@H](Br)CC[C@H]1Br", "group": "Condition not met"}
{"compound": "COCCN(C(=O)CO)c1c(C)cccc1C(=O)O", "group": "Condition not met"}
{"compound": "CC(C)(c1ccc(O)cc1)c1ccc(O)cc1", "group": "Condition met"}
{"compound": "CC(C)CNC(=O)N1CCNC1=O", "group": "Condition met"}
{"compound": "CCCCOC(=O)COc1ccc(Cl)cc1Cl", "group": "Condition not met"}
{"compound": "CC(C)N(C)S(=O)(=O)NC(=O)c1cc(-n2c(=O)cc(C(F)(F)F)[nH]c2=O)c(F)cc1Cl", "group": "Condition not met"}
{"compound": "CCCCCCC(C)OC(=O)C(C)Oc1ccc(Cl)cc1C (centres undefined)", "group": "Condition not met"}
{"compound": "COC1CCC2(CC1)NC(=O)C(c1cc(C)ccc1C)=C2O (centres undefined)", "group": "Condition met"}
{"compound": "CC(C)N(C(=O)CS(=O)(=O)[O-])c1ccccc1.[Na+]", "group": "Condition not met"}
{"compound": "CCSC(=O)COc1ccc(Cl)cc1C", "group": "Condition not met"}
{"compound": "N#Cc1c(N)nc(NC2CC2)nc1N", "group": "Condition met"}
{"compound": "O=C1NCC[n+]2ccccc21.[Br-]", "group": "Condition not met"}
{"compound": "CCc1cccc(C)c1NC(=O)CS(=O)(=O)[O-].[Na+]", "group": "Condition met"}
{"compound": "CC(C)OC(=O)c1cc(C(=O)OC(C)C)cc([N+](=O)[O-])c1", "group": "Condition not met"}
{"compound": "CN(C)C(=O)Nc1ccc(Oc2ccc(Cl)cc2)cc1", "group": "Condition not met"}

---

test system: Bacteroides uniformis; assay: growth AUC relative to DMSO control (median of replicates) (fraction); higher = more growth (less inhibition), active = hit call of the paper; conditions: 20 µM; 24 h
Measured growth AUC values are reported for all entries that follow.

{"compound": "CS(=O)(=O)c1ccc(C(=O)C2C(=O)C(O)CC(O)C2=O)c(Cl)c1COCC(F)(F)F (stereo unspecified)", "targetEntity": "Bacteroides uniformis", "growth AUC": 0.975}
{"compound": "O=C(O)c1cccc2nnsc12", "targetEntity": "Bacteroides uniformis", "growth AUC": 1.01}
{"compound": "O=C(O)C1(C(=O)Nc2ccc(Cl)cc2Cl)CC1", "targetEntity": "Bacteroides uniformis", "growth AUC": 1.04}
{"compound": "CCOC(=O)CSc1nc(C(C)(C)C)nn1C(=O)N(C)C", "targetEntity": "Bacteroides uniformis", "growth AUC": 0.989}
{"compound": "O=c1oc(-c2ccccc2)nc2ccccc12", "targetEntity": "Bacteroides uniformis", "growth AUC": 0.971}
{"compound": "CCCOC(=O)c1ccc(C(=O)OCCC)nc1", "targetEntity": "Bacteroides uniformis", "growth AUC": 0.99}

Source listed as the supplement of paper PMC12669032.
